Data origin: patent US12612424B2

target: JAK3 (Homo sapiens, UniProt P52333); construct: purchased Thermo fisher PV3855; assay: JAK3 biochemical assay (ADP-GLO Kinase Assay); conditions: ratio of JAK3 IC50 to HPK1 IC50; first testing facility
Sequence (P52333 781-1124 limits assumed): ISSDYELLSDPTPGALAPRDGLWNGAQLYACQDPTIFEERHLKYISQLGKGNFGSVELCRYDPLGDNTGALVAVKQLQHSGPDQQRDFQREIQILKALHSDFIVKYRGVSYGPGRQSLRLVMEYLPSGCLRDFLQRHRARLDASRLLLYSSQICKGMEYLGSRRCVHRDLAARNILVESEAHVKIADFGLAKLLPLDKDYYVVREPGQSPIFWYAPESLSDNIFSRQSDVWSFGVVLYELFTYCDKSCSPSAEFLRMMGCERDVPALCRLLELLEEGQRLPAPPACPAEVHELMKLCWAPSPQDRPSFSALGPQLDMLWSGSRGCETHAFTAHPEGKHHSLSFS
Readout Label: JAKs/HPK1 IC50 Ratio, B*
Would you mind answering with just the numeric figure?

Here's what some known entries look like.
> print(dat)
                                   molecule                      subject.of.test  experimental.value
1  CCc1c[nH]c2ncc(-c3ccc(C(N)=O)c(P(C)(C)=O)c3)cc12 [Example 67]  JAK3 (Homo sapiens, UniProt P52333)                  10
2  CCc1c[nH]c2ncc(-c3ccc(F)c(P(C)(C)=O)c3)cc12 [Example 51]  JAK3 (Homo sapiens, UniProt P52333)                  51
3  COc1cc2c(cc1Nc1ncc(Cl)c(-n3cc(C(C(=O)O)C(F)(F)F)c4ccccc43)n1)CN(C)CC2 (stereo not shown) [Example 144]  JAK3 (Homo sapiens, UniProt P52333)                 250

Turning now to a further record.
Give the measured JAKs/HPK1 IC50 Ratio, B* of COc1cc2c(cc1Nc1ncc(Cl)c(-n3cc(C4(C(=O)O)CC4)c4ccccc43)n1)CN(C)CC2 [Example 143] . 433

###

The following compounds are shown together with reported JAKs/HPK1 IC50 Ratio, N* values.
target: JAK3 (Homo sapiens); construct: purchased Thermo fisher PV3855; experiment: JAK3 biochemical assay (ADP-GLO Kinase Assay); settings: ratio of JAK3 IC50 to HPK1 IC50; second testing facility
I only need the number, thanks.

# example entries with known answers
> print(dat)
                            molecule.smiles             readout.label  experimental.value
1  COc1cc2c(cc1Nc1ncc3ccn(-c4ccccn4)c3n1)CN(C)CC2  JAKs/HPK1 IC50 Ratio, N*                 608
2  COc1cc2c(cc1Nc1ncc(Cl)c(N3CCc4ccccc43)n1)CN(C)CC2  JAKs/HPK1 IC50 Ratio, N*                 601

Here is another compound to look at.
Lab request: please report JAKs/HPK1 IC50 Ratio, N* under test system JAK3 (Homo sapiens) for CCc1c[nH]c2ncc(-c3ccc(N)c(P(C)(C)=O)c3)cc12 50

###

Recorded IC50 values for a group of molecules are listed next.
molecular target: HPK1 (Homo sapiens); experiment: HPK1 biochemical assay (ADP-GLO Kinase Assay); details: B*: testing performed in a first testing facility; read-out: HPK1 IC50 (nM) Relative, B*
Sequence (Q92918 whole entry): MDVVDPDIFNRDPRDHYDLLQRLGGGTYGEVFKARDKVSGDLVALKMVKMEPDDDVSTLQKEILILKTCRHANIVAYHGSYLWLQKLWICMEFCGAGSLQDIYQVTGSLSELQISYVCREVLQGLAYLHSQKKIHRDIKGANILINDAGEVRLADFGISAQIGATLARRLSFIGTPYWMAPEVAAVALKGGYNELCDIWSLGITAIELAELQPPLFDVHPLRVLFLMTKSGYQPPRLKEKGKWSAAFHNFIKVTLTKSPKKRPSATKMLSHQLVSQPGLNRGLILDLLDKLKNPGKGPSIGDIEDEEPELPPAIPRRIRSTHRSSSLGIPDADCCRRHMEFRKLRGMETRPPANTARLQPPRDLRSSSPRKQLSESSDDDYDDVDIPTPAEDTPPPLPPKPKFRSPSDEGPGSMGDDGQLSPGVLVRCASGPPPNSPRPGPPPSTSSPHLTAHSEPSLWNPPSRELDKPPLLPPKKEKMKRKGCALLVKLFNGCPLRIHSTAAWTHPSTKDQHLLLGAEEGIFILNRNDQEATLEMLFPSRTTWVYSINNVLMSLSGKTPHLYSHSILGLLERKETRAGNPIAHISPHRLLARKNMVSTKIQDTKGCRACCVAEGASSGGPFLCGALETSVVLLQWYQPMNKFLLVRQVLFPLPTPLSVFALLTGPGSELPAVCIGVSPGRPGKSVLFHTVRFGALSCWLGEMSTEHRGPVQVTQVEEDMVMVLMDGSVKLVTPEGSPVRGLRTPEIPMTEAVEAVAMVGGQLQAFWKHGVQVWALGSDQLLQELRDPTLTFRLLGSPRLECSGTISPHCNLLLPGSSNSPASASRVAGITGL

For orientation, consider the following solved cases.
> print(dat)
                                   molecule  readout.label  experimental.value
1  CN1CCc2cc(F)c(Nc3ncc(Cl)c(N4CC(C)(CC(=O)O)c5ccccc54)n3)cc2C1 (stereo not shown)           IC50            ≤ 100 nM
2  COc1cc2c(cc1Nc1ncc(Cl)c(-n3cc(P(C)(C)=O)c4ccccc43)n1)CN(C)CC2           IC50            ≤ 100 nM
3  COc1cc2c(cc1Nc1ncc(Cl)c(N3CC(C)(CC(=O)O)c4ccccc43)n1)CN(C)CC2 (stereo not shown) [Example 146]           IC50            ≤ 100 nM
4  COc1cc2c(cc1Nc1ncc(Cl)c(N3CC(C)(C(=O)O)c4ccccc43)n1)CNCC2 (stereo not shown)           IC50            ≤ 100 nM
5  CCc1c[nH]c2ncc(-c3ccc(NC4COC4)c(P(C)(C)=O)c3)cc12           IC50      500 to 1000 nM

Item under review: COc1cc2c(cc1Nc1ncc(Cl)c(N3CCc4ccc(F)cc43)n1)CN(C)CC2 . Reported IC50? ≤ 100 nM

Moving on to COc1cc2c(cc1Nc1ncc3ccn(-c4ccccc4P(C)(C)=O)c3n1)CN(C)CC2 500 to 1000 nM
